target: Alpha-glucosidase (Saccharomyces cerevisiae S288c, UniProt P53341+P38158+P07265); experiment: Inhibition of Saccharomyces cerevisiae alpha-glucosidase using maltose as substrate incubated for 30 mins by spectrophotometric assay; format: protein assay
EXPERIMENTAL_READOUT: IC50 (µM)

a = C=C(C)C1Cc2c(cc3oc4cc(O)c(OC)c(CC=C(C)C)c4c(=O)c3c2O)O1 (stereo unspecified)
b = C=C(C)/C=C/c1c(O)cc2oc3cc(O)c(OC)c(/C=C/C(=C)C)c3c(=O)c2c1O
Parameter check: reported IC50 is higher for which label, a or b ? Choose, then provide that item's label.
a

1 = C=C(C)/C=C/c1c(O)cc2oc3cc(O)c(OC)c(CCC(C)(C)O)c3c(=O)c2c1O
2 = C=C(C)/C=C/c1c(OC)c(O)cc2oc3cc4c(c(O)c3c(=O)c12)C=CC(C)(C)O4
In terms of reported IC50, does 1 or 2 have the smaller number? Choose, then provide that item's label.
2
(2: 92.2 µM, 1: 140.2 µM)

Cited source: ChEMBL document CHEMBL5244222
